- Tested on: NCI-H522 lung
- assay: NCI tumour cell line growth inhibition, 48 h
measured parameter: TGI

Here is how some molecules turned out for TGI.
# molecule, measured on, TGI
rows = [
    ("Cc1ccc(C)c(NC(=O)C(=O)CC(=O)C2CCOC2=O)c1 (stereo unspecified)", "NCI-H522 lung", "> 100 µM"),
    ("O=[As](O)(O)c1ccc(NCc2ccccc2)cc1", "NCI-H522 lung", "> 100 µM"),
]

Using the record for `COC(=O)Cc1cc(OC)c(OC)cc1Br` , report its TGI. > 100 µM

Could you do the same for O=C1c2ccccc2C2(O)Nc3cc(O)ccc3C12O (stereo unspecified) , please? > 100 µM

# iterate: COc1ccc(/C(=N/NC(N)=O)C2(O)C(=O)Nc3ccc([N+](=O)[O-])cc32)cc1 (stereo unspecified) 41.9 µM

Do the same for Nc1nc(Cl)cc(NCC2(O)CC(CO)C2)n1 (stereo unspecified) please > 100 µM

Please do the same for O=C1CSC2(CC(/C=C/c3ccccc3)=NN2c2cccc(S(=O)(=O)O)c2)N1c1nc2ccccc2s1 (stereo unspecified) as well. 37 µM

Please do the same for `Cn1cc(-c2nonc2-c2c[nH]c3ccccc23)c2ccccc21` as well. 9.79 µM

What do you get for `Cc1c2cnccc2c(C)c2c1c1cc(C3OCCCO3)ccc1n2C` ? 2.48 µM

Please do the same for `c1ccc(C2=NC3(CCCCC3)N(c3nc4ccccc4s3)N2)nc1` as well. > 100 µM

COc1ccc(S(=O)(=O)NC(C)C(=O)O)cc1 (stereo unspecified) ? > 100 µM

###

- Tested on: OVCAR-8 ovarian
- assay: NCI tumour cell line growth inhibition, 48 h
As shown below, each of these molecules has a reported TGI value.

# molecule, observed
measured = [
    ("Nc1nc2c(=O)c3ccccc3sc2s1", "50.7 µM"),
    ("C1CC2=C(C1)[Se]C(=C1Sc3nsnc3S1)[Se]2", "> 100 µM"),
    ("Clc1ccc(-c2ccc(-c3nnc(CCc4nnc(-c5ccc(-c6ccc(Cl)cc6)o5)o4)o3)o2)cc1", "> 100 µM"),
    ("CCOC(=O)CCCn1nnc(C(=O)OCC)c1C(=O)OCC", "> 100 µM"),
    ("Cc1c2cc[nH]c(=O)c2c(C)c2c1[nH]c1cc(OCCN3CCN(C)CC3)ccc12", "6.08 µM"),
    ("CCOc1ccc(NC(=O)CC2SC(=Nc3ccc(Cl)cc3)NC2=O)cc1 (stereo not given)", "> 100 µM"),
    ("COC(=O)C(=O)C(C(=O)Nc1cccc(C)c1C)C1Sc2ccccc2NC1=O (stereo not given)", "> 25 µM"),
    ("CC(=O)NC1C(OCc2ccccc2)OC(CO)C(O)C1OCC(=O)NC(C)C(=O)NC(CCC(=O)NCCCCNc1ccc([N+](=O)[O-])c2[nH]c3ccccc3c(=O)c12)C(N)=O (stereo not given)", "> 100 µM"),
]

Can you share its TGI? I mean this molecule: `Cc1cc(C)nc(NC(N)=NCCc2ccccc2)n1` 34.8 µM

Try C[N+]1(C)CCCC1C(=O)[O-] (stereo not given) next. > 100 µM

###

// reported TGI per item
- Test system: LXFL 529 NSCLC
- assay: NCI tumour cell line growth inhibition, 48 h

In the examples that follow, each entry is paired with its recorded TGI.
# molecule, observed
measured = [
    ("CC1[C@@H]2[C@@H](C=C3C4CCC5Cc6nc7c(nc6C[C@@]5(C)C4C[C@H](O)[C@]32CO)CC2CCC3C4=C[C@H]5O[C@@]6(O[C@@](C)(CO)C[C@@H]6O)C(C)[C@@]5(O)[C@]4(C)[C@@H](O)CC3[C@]2(C)C7)O[C@]12CCC(C)(C)O2 (some centres undefined)", "0.0713 µM"),
    ("C=CCC1OC(C)(C)Oc2ccc(OCOCCOC)cc21 (centres undefined)", "> 100 µM"),
    ("O=C(O)CN(c1ccccc1)S(=O)(=O)c1ccc(NC(=O)c2ccccc2)cc1", "> 100 µM"),
]

// query TGI value for entry `COc1ccc(/C=C2\CN(C)Cc3c2nc(N)nc3-c2ccc(OC)cc2)cc1` > 100 µM
